- Test system: PXR:RXRa (NR concentration 270 nM, RXRa partner concentration 90 nM)
- ASSAY: PBM binding z-score (relative to random genomic background probes); higher = stronger binding; sequences stand for … in GC…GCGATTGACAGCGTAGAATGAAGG
Record form. Attribute: PBM binding z-score. Fill in for each entry.

Query :: Fill in: PBM binding z-score of `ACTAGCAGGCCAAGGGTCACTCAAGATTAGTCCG` is ___
Result :: 3.21

Query :: Could you do the same for `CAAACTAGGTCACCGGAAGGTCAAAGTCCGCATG` , please?
Result :: 5.88

Query :: Could you do the same for `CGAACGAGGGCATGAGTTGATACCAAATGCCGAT` , please?
Result :: 0.723

Query :: Could you do the same for `GCGACTGGGGCATCCGCAGGTTACCATAACTTAA` , please?
Result :: 0.263

Query :: Could you do the same for `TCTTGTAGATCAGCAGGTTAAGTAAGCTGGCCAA` , please?
Result :: 0.266

Query :: Could you do the same for `ATACCAAGGTGATCGTGAGGTCGTTGCTACTAAC` , please?
Result :: 3.18

Query :: Could you do the same for `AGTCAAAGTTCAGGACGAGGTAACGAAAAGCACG` , please?
Result :: 2.75

Query :: Could you do the same for `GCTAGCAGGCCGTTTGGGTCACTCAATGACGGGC` , please?
Result :: 0.292

Query :: Could you do the same for `CTACCAAGGTGACCAAGGTCGTTGATTACTATTC` , please?
Result :: 2.3

Query :: Could you do the same for `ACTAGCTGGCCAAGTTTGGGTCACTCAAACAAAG` , please?
Result :: 0.38

Query :: Could you do the same for `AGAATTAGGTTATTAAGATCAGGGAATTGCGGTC` , please?
Result :: 0.5

Query :: Could you do the same for `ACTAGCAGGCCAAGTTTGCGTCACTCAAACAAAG` , please?
Result :: -0.294

* * *

- Test system: LXRa:RXRa (NR concentration 270 nM, RXRa partner concentration 90 nM)
- ASSAY: PBM binding z-score (relative to random genomic background probes); higher = stronger binding; sequences stand for … in GC…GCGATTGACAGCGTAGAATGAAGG
VALUE TYPE: PBM binding z-score

Query :: Fill in: PBM binding z-score of `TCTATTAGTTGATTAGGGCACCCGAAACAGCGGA` is ___
Result :: 0.698

Query :: Could you do the same for `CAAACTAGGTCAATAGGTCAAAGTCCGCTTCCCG` , please?
Result :: 5.58

Query :: Could you do the same for `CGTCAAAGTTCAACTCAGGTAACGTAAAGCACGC` , please?
Result :: 6.43

Query :: Could you do the same for `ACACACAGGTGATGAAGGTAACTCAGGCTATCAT` , please?
Result :: 0.147

Query :: Could you do the same for `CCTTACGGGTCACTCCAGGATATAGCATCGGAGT` , please?
Result :: 5.8

Query :: Could you do the same for `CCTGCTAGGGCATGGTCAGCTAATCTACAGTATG` , please?
Result :: -0.381

Query :: Could you do the same for `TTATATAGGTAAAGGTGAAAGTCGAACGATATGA` , please?
Result :: 1.34

Query :: Could you do the same for `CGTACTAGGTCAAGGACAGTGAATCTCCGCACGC` , please?
Result :: 2.36

Query :: Could you do the same for `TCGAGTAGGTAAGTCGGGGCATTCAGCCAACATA` , please?
Result :: -0.0704

Query :: Could you do the same for `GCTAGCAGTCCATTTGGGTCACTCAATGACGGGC` , please?
Result :: -0.125

Query :: Could you do the same for `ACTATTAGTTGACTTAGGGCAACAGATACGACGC` , please?
Result :: 0.0659

Query :: Could you do the same for `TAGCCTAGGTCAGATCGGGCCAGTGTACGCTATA` , please?
Result :: 0.96

Query :: Could you do the same for `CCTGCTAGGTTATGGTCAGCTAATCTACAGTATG` , please?
Result :: -0.0994

Query :: Could you do the same for `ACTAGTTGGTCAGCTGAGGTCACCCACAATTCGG` , please?
Result :: 3.1

Query :: Could you do the same for `CCTAGTTGGTCAGGAGGTCACAGACCGGATATGA` , please?
Result :: 3.46

Query :: Could you do the same for `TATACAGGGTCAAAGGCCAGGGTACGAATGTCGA` , please?
Result :: 6.23

Query :: Could you do the same for `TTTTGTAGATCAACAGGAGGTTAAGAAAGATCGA` , please?
Result :: 1.38

Query :: Could you do the same for `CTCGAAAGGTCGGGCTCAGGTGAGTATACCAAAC` , please?
Result :: 2.11

Query :: Could you do the same for `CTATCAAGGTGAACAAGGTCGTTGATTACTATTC` , please?
Result :: 1.14

Query :: Could you do the same for `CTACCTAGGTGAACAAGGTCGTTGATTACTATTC` , please?
Result :: 0.98

Query :: Could you do the same for `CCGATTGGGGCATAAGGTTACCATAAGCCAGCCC` , please?
Result :: 2.07

Query :: Could you do the same for `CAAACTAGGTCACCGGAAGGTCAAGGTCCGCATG` , please?
Result :: 5.56

Query :: Could you do the same for `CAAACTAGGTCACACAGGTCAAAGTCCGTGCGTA` , please?
Result :: 5.43

Query :: Could you do the same for `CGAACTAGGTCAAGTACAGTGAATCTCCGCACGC` , please?
Result :: 2.83

Query :: Could you do the same for `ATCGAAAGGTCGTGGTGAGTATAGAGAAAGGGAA` , please?
Result :: 4.49

Query :: Could you do the same for `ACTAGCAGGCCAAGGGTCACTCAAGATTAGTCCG` , please?
Result :: 2.76

Query :: Could you do the same for `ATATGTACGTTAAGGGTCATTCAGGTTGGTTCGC` , please?
Result :: 4.13

Query :: Could you do the same for `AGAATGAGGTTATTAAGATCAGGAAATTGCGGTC` , please?
Result :: 1.7

Query :: Could you do the same for `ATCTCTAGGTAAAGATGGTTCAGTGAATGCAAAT` , please?
Result :: 0.987

Query :: Could you do the same for `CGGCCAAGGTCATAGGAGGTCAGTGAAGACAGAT` , please?
Result :: 7.58

Query :: Could you do the same for `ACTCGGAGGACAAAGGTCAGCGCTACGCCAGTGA` , please?
Result :: 4.2

Query :: Could you do the same for `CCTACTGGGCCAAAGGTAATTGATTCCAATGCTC` , please?
Result :: -0.199

Query :: Could you do the same for `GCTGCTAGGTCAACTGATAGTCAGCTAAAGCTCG` , please?
Result :: 2.78

Query :: Could you do the same for `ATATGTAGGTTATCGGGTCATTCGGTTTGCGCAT` , please?
Result :: 3.11

Query :: Could you do the same for `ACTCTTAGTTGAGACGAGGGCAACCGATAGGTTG` , please?
Result :: -0.132

Query :: Could you do the same for `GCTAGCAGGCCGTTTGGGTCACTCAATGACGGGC` , please?
Result :: -0.392

Query :: Could you do the same for `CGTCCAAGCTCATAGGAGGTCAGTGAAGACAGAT` , please?
Result :: 1.51

Query :: Could you do the same for `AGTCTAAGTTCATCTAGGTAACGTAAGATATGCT` , please?
Result :: 4.07

Query :: Could you do the same for `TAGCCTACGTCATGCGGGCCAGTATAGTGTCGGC` , please?
Result :: -0.942

Query :: Could you do the same for `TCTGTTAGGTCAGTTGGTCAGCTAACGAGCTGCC` , please?
Result :: 1.74

Query :: Could you do the same for `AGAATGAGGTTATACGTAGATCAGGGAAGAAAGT` , please?
Result :: 1.99

Query :: Could you do the same for `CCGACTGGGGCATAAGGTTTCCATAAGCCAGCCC` , please?
Result :: -0.0633

Query :: Could you do the same for `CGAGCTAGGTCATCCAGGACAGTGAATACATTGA` , please?
Result :: 2.49

Query :: Could you do the same for `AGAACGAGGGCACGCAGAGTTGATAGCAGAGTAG` , please?
Result :: 0.811

Query :: Could you do the same for `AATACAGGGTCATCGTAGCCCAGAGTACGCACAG` , please?
Result :: 5.87

Query :: Could you do the same for `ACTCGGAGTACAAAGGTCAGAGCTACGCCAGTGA` , please?
Result :: 4.12

Query :: Could you do the same for `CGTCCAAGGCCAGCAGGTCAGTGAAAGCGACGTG` , please?
Result :: 0.0811

Query :: Could you do the same for `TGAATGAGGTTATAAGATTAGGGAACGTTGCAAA` , please?
Result :: 1.39

Query :: Could you do the same for `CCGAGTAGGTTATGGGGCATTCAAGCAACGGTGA` , please?
Result :: 0.506

Query :: Could you do the same for `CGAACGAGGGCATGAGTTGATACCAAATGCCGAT` , please?
Result :: 0.53

Query :: Could you do the same for `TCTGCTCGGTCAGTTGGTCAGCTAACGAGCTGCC` , please?
Result :: -0.247
